# tested system: TLR7 (Homo sapiens)
# Construct: host or cells: HEK-Blue cells (human HEK) co-expressing TLR7 and an NF-kB/AP1-inducible SEAP reporter
# Sequence (Q9NYK1 27-1049): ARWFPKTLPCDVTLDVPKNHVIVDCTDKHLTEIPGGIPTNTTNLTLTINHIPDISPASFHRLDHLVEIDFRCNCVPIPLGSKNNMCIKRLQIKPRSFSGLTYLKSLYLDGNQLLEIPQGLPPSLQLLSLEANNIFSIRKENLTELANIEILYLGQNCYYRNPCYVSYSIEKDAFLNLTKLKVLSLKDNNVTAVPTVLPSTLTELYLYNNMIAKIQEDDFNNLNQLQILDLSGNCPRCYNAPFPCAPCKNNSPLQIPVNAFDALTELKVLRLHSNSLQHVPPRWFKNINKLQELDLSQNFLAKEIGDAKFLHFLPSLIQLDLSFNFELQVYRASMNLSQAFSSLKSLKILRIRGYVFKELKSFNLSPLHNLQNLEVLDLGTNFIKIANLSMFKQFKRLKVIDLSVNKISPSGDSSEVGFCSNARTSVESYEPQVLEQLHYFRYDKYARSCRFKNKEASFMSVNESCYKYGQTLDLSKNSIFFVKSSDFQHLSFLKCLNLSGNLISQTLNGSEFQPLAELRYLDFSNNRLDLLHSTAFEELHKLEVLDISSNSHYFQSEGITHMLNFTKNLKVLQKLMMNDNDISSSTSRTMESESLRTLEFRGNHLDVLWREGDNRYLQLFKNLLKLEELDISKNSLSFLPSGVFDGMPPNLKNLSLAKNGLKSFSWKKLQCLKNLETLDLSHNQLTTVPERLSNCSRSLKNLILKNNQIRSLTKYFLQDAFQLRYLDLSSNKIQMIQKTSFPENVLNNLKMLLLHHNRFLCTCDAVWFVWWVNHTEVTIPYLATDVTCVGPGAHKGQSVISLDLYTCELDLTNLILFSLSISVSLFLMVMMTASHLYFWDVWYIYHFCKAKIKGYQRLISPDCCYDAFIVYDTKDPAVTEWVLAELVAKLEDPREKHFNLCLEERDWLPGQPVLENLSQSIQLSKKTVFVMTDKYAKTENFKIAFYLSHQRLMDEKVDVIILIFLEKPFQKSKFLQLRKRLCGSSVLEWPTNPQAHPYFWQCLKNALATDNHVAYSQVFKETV
# assay remarks: In vitro human TLR7 binding reporter assay (HEK-Blue, NF-kB/AP1-inducible SEAP)
# Assay type: cell-based
# setup conditions: activity range symbols
pEC50: −log10 of the molar value.
Recorded pEC50 for the following molecules

{"molecule": "Nc1nc2cc(C(F)(F)F)ccc2c2[nH]c(CN3CCCC3=O)nc12 [Compound 163]", "pEC50": "4.00 to 4.70"}
{"molecule": "CCOC(=O)c1cc2c(cc1Br)nc(N)c1nc(CN(CC)C(C)=O)[nH]c12 [Compound 198]", "pEC50": "< 4.00"}
{"molecule": "CCN(Cc1nc2c(N)nc3cc(-c4cc[nH]n4)ccc3c2[nH]1)C(=O)CN(C)C [Compound 383]", "pEC50": "< 4.00"}
{"molecule": "CCN(Cc1nc2c(N)nc3ccccc3c2n1CCC(=O)N1CCS(=O)(=O)CC1)C(=O)OC(C)(C)C [Compound 223]", "pEC50": "4.00 to 4.70"}
{"molecule": "CCCc1ccc2c(c1)nc(N)c1nc(CN(CC)C(C)=O)[nH]c12 [Compound 172]", "pEC50": "4.70 to 6.00"}

Lookup: Using the record for CCN(Cc1nc2c(N)nc3cc(-c4cccnc4F)ccc3c2[nH]1)C(C)=O [Compound 175] , report its pEC50.
Found: < 4.00

Lookup: Using the record for COc1ccc(-c2ccc3c(c2)nc(N)c2nc(CN4CCCC4=O)[nH]c23)cc1 [Compound 230] , report its pEC50.
Found: < 4.00

Lookup: Using the record for Nc1nc2cc(C3CCCCC3)ccc2c2[nH]c(CN3CCCC3=O)nc12 [Compound 302] , report its pEC50.
Found: < 4.00

====

# tested system: hNLRP3 (Homo sapiens, UniProt Q96P20)
# Construct: THP-1 cells were purchased from the American Type Culture Collection
# Sequence (Q96P20 whole entry): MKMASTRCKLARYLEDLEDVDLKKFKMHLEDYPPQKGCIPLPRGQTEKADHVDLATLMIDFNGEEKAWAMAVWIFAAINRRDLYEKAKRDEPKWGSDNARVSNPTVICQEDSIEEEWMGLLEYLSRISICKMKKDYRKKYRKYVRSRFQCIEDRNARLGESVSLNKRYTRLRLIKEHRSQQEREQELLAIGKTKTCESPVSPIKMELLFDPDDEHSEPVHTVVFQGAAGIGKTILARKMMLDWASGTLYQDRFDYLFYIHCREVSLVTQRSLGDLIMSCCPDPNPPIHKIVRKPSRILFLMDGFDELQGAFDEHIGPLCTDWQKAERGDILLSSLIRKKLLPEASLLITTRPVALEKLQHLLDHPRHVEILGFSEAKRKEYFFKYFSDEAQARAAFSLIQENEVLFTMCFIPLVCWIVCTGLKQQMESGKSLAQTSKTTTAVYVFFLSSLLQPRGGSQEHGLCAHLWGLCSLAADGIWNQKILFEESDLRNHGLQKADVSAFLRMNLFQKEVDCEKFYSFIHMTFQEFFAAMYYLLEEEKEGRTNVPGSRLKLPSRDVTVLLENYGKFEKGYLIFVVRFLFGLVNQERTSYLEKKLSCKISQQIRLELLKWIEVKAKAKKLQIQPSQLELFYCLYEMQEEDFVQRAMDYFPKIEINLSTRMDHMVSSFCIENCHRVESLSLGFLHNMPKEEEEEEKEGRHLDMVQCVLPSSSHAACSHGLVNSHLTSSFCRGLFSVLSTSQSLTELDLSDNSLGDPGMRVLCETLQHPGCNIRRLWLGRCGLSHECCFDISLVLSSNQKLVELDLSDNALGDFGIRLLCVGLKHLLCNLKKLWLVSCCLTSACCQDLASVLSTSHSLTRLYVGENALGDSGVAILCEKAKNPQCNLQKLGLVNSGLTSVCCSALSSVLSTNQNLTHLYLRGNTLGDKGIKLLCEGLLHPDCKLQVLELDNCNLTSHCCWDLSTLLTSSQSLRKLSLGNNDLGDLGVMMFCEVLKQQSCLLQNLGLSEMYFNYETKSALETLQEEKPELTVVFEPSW
# assay remarks: Measurement of IL-1β production in PMA-differentiated THP-1 cells (hNLRP3 agonist; ELISA, alternative and hTRF procedures)
pEC50: −log10 of the molar value. Where a name gives a salt, the structure may show the parent alone.
measurement type: pEC50

Past entries and their recorded results:
{"molecule": "COc1ncccc1-c1ccc2c(c1)nc(N)c1nc(CN3CCCC3=O)[nH]c12 [Compound 319]", "tested system": "hNLRP3 (Homo sapiens, UniProt Q96P20)", "pEC50": 5.21}
{"molecule": "Nc1nc2cc(-c3cccc(Cl)c3)ccc2c2[nH]c(CN3CCCC3=O)nc12 [Compound 285]", "tested system": "hNLRP3 (Homo sapiens, UniProt Q96P20)", "pEC50": 5.24}
{"molecule": "CCN(Cc1nc2c(N)nc3cc(-n4cccn4)ccc3c2[nH]1)C(C)=O [Compound 180]", "tested system": "hNLRP3 (Homo sapiens, UniProt Q96P20)", "pEC50": 5.82}
{"molecule": "CCN(Cc1nc2c(N)nc3ccc(Br)cc3c2[nH]1)C(=O)C(C)C [Compound 203]", "tested system": "hNLRP3 (Homo sapiens, UniProt Q96P20)", "pEC50": 4.97}
{"molecule": "CCN(Cc1nc2c(N)nc3ccccc3c2n1CCC(=O)N1CCS(=O)(=O)CC1)C(=O)OC(C)(C)C [Compound 223]", "tested system": "hNLRP3 (Homo sapiens, UniProt Q96P20)", "pEC50": 4.11}

(I) CCNCc1nc2c(N)nc3cc(-c4cccs4)ccc3c2[nH]1 [Compound 399]
(II) CCN(Cc1nc2c(N)nc3cc(Cl)ccc3c2[nH]1)C(C)=O [Compound 179]
(III) CCNCc1nc2c(N)nc3cc(-c4cc[nH]n4)ccc3c2[nH]1 [Compound 101, hydrochloride]
(IV) CN(Cc1nc2c(N)nc3cc(-c4cc[nH]n4)ccc3c2[nH]1)C(=O)CO [Compound 370]
(V) CCC(=O)N(CC)Cc1nc2c(N)nc3cc(-c4cc[nH]n4)ccc3c2[nH]1 [Compound 125]
Lookup: Ordering: ascending pEC50. List labels; respect the requested ordering.
Found: II, IV, V, I, III
(II: 4.90, IV: 5.32, V: 5.68, I: 5.97, III: 6.57)

====

# tested system: hNLRP3 (Homo sapiens)
# Construct: THP-1 cells were purchased from the American Type Culture Collection
# assay remarks: Measurement of IL-1β production in PMA-differentiated THP-1 cells (hNLRP3 agonist; ELISA, alternative and hTRF procedures)
measurement type: EC50 (µM)

Past entries and their recorded results:
{"molecule": "Nc1nc2cc(Br)ccc2c2[nH]c(CN3CCCCC3=O)nc12 [Compound 428]", "unit info": "µM", "reported value": 5.1}
{"molecule": "Nc1nc2cc(-c3ccc(Cl)nc3)ccc2c2[nH]c(CN3CCCC3=O)nc12 [Compound 153]", "unit info": "µM", "reported value": 12}
{"molecule": "CCn1c(CN2CCCC2=O)nc2c(N)nc3cc(-n4cccn4)ccc3c21 [Compound 465]", "unit info": "µM", "reported value": 1}
{"molecule": "CCN(Cc1nc2c(N)nc3cc(-c4cc[nH]n4)ccc3c2n1C)C(=O)OC(C)(C)C [Compound 420]", "unit info": "µM", "reported value": 0.19}

(P) CC(c1nc2c(N)nc3cc(Br)ccc3c2[nH]1)N1CCCC1=O (stereo not shown) [Compound 303]
(Q) CCN(Cc1nc2c(N)nc3cc(-c4cc[nH]n4)ccc3c2[nH]1)C(=O)Cc1ccccc1 [Compound 443]
Lookup: Endpoint returns whichever of P and Q has the numerically higher EC50. Indicate which entry you chose by stating its label.
Found: P

====

# tested system: hNLRP3 (Homo sapiens)
# Construct: THP-1 cells were purchased from the American Type Culture Collection
# assay remarks: Measurement of IL-1β production in PMA-differentiated THP-1 cells (hNLRP3 agonist; ELISA, alternative and hTRF procedures)
measurement type: EC50 (µM)

(I) CCN(Cc1nc2c(N)nc3cc(Br)ccc3c2n1CCCC(=O)N1CCOCC1)C(C)=O
(II) CCN(Cc1nc2c(N)nc3cc(-c4cc[nH]n4)ccc3c2[nH]1)C(=O)c1ccccc1Cl
(III) COC(=O)CCCn1c(CN2CCCC2=O)nc2c(N)nc3cc(Cl)ccc3c21
(IV) CCN(Cc1nc2c(N)nc3cc(-c4cc(C)nn4C)ccc3c2[nH]1)C(C)=O
Lookup: Hey, quick one: sort these by EC50, largest value first please. List labels; respect the requested ordering.
Found: IV, I, III, II
(IV: 101 µM, I: 51.5 µM, III: 6.6 µM, II: 0.9 µM)

====

# tested system: TLR7 (Homo sapiens)
# Construct: host or cells: HEK-Blue cells (human HEK) co-expressing TLR7 and an NF-kB/AP1-inducible SEAP reporter
# Sequence (Q9NYK1 27-1049): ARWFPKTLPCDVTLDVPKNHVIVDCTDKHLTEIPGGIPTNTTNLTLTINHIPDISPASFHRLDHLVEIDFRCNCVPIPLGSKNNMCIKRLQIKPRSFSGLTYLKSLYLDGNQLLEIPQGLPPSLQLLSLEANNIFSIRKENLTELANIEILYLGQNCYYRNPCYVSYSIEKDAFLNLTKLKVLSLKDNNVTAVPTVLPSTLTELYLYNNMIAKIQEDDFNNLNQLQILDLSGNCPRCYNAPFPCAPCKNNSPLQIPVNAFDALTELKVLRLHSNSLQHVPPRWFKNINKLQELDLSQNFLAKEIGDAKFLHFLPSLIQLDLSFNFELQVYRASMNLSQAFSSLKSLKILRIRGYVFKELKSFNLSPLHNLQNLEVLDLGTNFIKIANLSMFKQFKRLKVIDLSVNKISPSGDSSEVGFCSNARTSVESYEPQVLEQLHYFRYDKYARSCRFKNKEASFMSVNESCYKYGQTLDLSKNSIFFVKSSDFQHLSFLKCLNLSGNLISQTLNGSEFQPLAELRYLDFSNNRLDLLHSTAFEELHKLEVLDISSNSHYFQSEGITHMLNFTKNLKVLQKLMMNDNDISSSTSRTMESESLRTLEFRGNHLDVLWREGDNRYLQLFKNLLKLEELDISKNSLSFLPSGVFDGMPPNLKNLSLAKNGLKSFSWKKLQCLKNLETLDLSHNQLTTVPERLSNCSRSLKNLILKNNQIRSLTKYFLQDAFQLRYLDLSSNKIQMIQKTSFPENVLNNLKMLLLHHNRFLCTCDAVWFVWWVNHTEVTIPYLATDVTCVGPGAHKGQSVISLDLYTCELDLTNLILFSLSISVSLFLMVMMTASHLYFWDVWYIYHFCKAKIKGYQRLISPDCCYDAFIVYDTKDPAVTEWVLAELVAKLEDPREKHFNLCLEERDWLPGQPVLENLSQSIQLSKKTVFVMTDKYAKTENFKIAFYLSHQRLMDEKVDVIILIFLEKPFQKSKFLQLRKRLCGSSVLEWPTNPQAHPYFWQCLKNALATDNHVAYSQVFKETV
# assay remarks: In vitro human TLR7 binding reporter assay (HEK-Blue, NF-kB/AP1-inducible SEAP)
# Format: cell-based
# setup conditions: activity range symbols
measurement type: EC50

Past entries and their recorded results:
{"smiles code": "CN(C)C(=O)N(C)Cc1nc2c(N)nc3cc(-c4cc[nH]n4)ccc3c2[nH]1", "tested system": "TLR7 (Homo sapiens)", "reported value": "> 100 µM"}
{"smiles code": "CCN(Cc1nc2c(N)nc3cc(-c4cccs4)ccc3c2[nH]1)C(=O)OC(C)(C)C", "tested system": "TLR7 (Homo sapiens)", "reported value": "> 100 µM"}
{"smiles code": "Nc1nc2cc(C3CCCCCC3)ccc2c2[nH]c(CN3CCCC3=O)nc12", "tested system": "TLR7 (Homo sapiens)", "reported value": "> 100 µM"}
{"smiles code": "CC(=O)N(Cc1nc2c(N)nc3cc(-c4cc[nH]n4)ccc3c2[nH]1)C(C)C", "tested system": "TLR7 (Homo sapiens)", "reported value": "> 100 µM"}
{"smiles code": "Nc1nc2cc(-c3cnccc3Cl)ccc2c2[nH]c(CN3CCCC3=O)nc12", "tested system": "TLR7 (Homo sapiens)", "reported value": "20 to 100 µM"}
{"smiles code": "CCNCc1nc2c(N)nc3cc(-c4cccs4)ccc3c2n1CCO", "tested system": "TLR7 (Homo sapiens)", "reported value": "> 100 µM"}
{"smiles code": "Nc1nc2cc(-n3ncc4ccccc43)ccc2c2[nH]c(CN3CCCC3=O)nc12", "tested system": "TLR7 (Homo sapiens)", "reported value": "20 to 100 µM"}

Please find the next compound below.
Lookup: Using the record for "CCN(Cc1nc2c(N)nc3cc(-c4ccsc4)ccc3c2[nH]1)C(C)=O" , report its EC50.
Found: > 100 µM
